Test system: GPR160 gene
Assay: Quantitative RT-PCR of GPR160 expression after lentiviral shRNA infection
Type: cell-based, human
Conditions: PC-3 cells, MOI 40, 72 hours after infection, compared with control virus ShGPR160-S10
measured.quantity: inhibitory efficiency on GPR160 expression (%)

[
  {
    "substance": "ShGPR160-S6: Lentivirus from pGFP-C-shGPR160 plasmid; siRNA sense strand SEQ ID NO.: 6, 5′-TTGGTACAGGCTATCAGGATAACTTCCTA-3′",
    "assay.target": "GPR160 gene",
    "reading.unit": "%",
    "recorded.number": 87.8
  },
  {
    "substance": "ShGPR160-S7: Lentivirus from pGFP-C-shGPR160 plasmid; siRNA sense strand SEQ ID NO.: 7, 5′-TTCTATGTCAGCATTCAGAGTTACTGGCT-3′",
    "assay.target": "GPR160 gene",
    "reading.unit": "%",
    "recorded.number": 85.0
  },
  {
    "substance": "ShGPR160-S9: Lentivirus from pGFP-C-shGPR160 plasmid; siRNA sense strand SEQ ID NO.: 9, 5′-CCATTTGTCAACTGGAAGTGCTGCTTCAT-3′",
    "assay.target": "GPR160 gene",
    "reading.unit": "%",
    "recorded.number": 41.8
  },
  {
    "substance": "ShGPR160-S8: Lentivirus from pGFP-C-shGPR160 plasmid; siRNA sense strand SEQ ID NO.: 8, 5′-CCATCTACCAAAGCCTGAAGGCACAGAAT-3′",
    "assay.target": "GPR160 gene",
    "reading.unit": "%",
    "recorded.number": 41.7
  }
]
